Test system: 596521-263-R-J1-PDC complex spheroid growth
Assay: Anticancer human tumor 596521-263-R-J1-PDC patient-derived soft tissue sarcoma cell line growth inhibition [Asc]
Conditions: curve of first compound; second compound 0.0316 µM
Source text: Multicellular complex tumor spheroid response to apoptosis pathway targeting inhibitors Alrizomadlin, Pelcitoclax, and Dasminapant in combination with a variety of drugs and investigational agents in selected tumor cell lines […] Compounds. […] If the clinical Cmax for an agent had not been determined, the highest concentration tested was 10 microM. […]
PROPERTY MEASURED: IC50 (µM)
Give bare numbers, in µM.

Ask: Find the recorded IC50 belonging to C=C(F)C(=O)N1CCN(c2nc(OCC3CCCN3C)nc3c2CCN(c2cccc4cccc(Cl)c24)C3)CC1CC#N (stereo unspecified) + Cc1c(S(C)(=O)=O)c(-c2cc(F)cc(N3CCN(c4ccc(NS(=O)(=O)c5ccc(NC(CCN6CCC(C(=O)OCCCP(=O)(O)O)CC6)CSc6ccccc6)c(S(=O)(=O)C(F)(F)F)c5)cc4)CC3)c2)c(-c2ccc(Cl)cc2)n1C(C)C and report it.
Result: 4.96

* * *

System: 596521-263-R-J1-PDC complex spheroid growth
Test: Anticancer human tumor 596521-263-R-J1-PDC cell line growth inhibition [Asc];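 further: spheroids exposed to compounds for 7 days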
Settings: second compound 1 µM; first compound 1 µM; stronger effect = lower value
Labelling field: enter T if recorded viability, T/C is less than 70%. Enter F if it equals or exceeds that cut-off.

MOLECULE: C#Cc1c(F)ccc2cc(O)cc(-c3ncc4c(N5CC6CCC(C5)N6)nc(OCC56CCCN5CC(F)C6)nc4c3F)c12 (configuration not stated) + Cc1c(S(C)(=O)=O)c(-c2cc(F)cc(N3CCN(c4ccc(NS(=O)(=O)c5ccc(NC(CCN6CCC(C(=O)OCCCP(=O)(O)O)CC6)CSc6ccccc6)c(S(=O)(=O)C(F)(F)F)c5)cc4)CC3)c2)c(-c2ccc(Cl)cc2)n1C(C)C
LABEL CLASS: F
//
MOLECULE: COc1c(OCCCN2CCOCC2)ccc2c3n(c(=NC(=O)c4cnc(N)nc4)nc12)CCN3 + Cc1c(S(C)(=O)=O)c(-c2cc(F)cc(N3CCN(c4ccc(NS(=O)(=O)c5ccc(NC(CCN6CCC(C(=O)OCCCP(=O)(O)O)CC6)CSc6ccccc6)c(S(=O)(=O)C(F)(F)F)c5)cc4)CC3)c2)c(-c2ccc(Cl)cc2)n1C(C)C
LABEL CLASS: T
//
MOLECULE: C=CC(=O)N1CCN(c2nc(=O)n(-c3c(C)ccnc3C(C)C)c3nc(-c4c(O)cccc4F)c(F)cc23)C(C)C1 (configuration not stated) + Cc1c(S(C)(=O)=O)c(-c2cc(F)cc(N3CCN(c4ccc(NS(=O)(=O)c5ccc(NC(CCN6CCC(C(=O)OCCCP(=O)(O)O)CC6)CSc6ccccc6)c(S(=O)(=O)C(F)(F)F)c5)cc4)CC3)c2)c(-c2ccc(Cl)cc2)n1C(C)C
LABEL CLASS: F
//
MOLECULE: C=C(F)C(=O)N1CCN(c2nc(OCC3CCCN3C)nc3c2CCN(c2cccc4cccc(Cl)c24)C3)CC1CC#N (configuration not stated) + Cc1c(S(C)(=O)=O)c(-c2cc(F)cc(N3CCN(c4ccc(NS(=O)(=O)c5ccc(NC(CCN6CCC(C(=O)OCCCP(=O)(O)O)CC6)CSc6ccccc6)c(S(=O)(=O)C(F)(F)F)c5)cc4)CC3)c2)c(-c2ccc(Cl)cc2)n1C(C)C
LABEL CLASS: F
//
MOLECULE: O=C(c1ccc(F)c(F)c1Nc1ccc(I)cc1F)N1CC(O)([C@@H]2CCCCN2)C1 + Cc1c(S(C)(=O)=O)c(-c2cc(F)cc(N3CCN(c4ccc(NS(=O)(=O)c5ccc(NC(CCN6CCC(C(=O)OCCCP(=O)(O)O)CC6)CSc6ccccc6)c(S(=O)(=O)C(F)(F)F)c5)cc4)CC3)c2)c(-c2ccc(Cl)cc2)n1C(C)C
LABEL CLASS: T
//
MOLECULE: CNC(C)C(=O)NC1CN(S(=O)(=O)c2cccc(S(=O)(=O)N3CCC4CCC(C(=O)NC(c5ccccc5)c5ccccc5)N4C(=O)C(NC(=O)C(C)NC)C3)c2)CCC2CCC(C(=O)NC(c3ccccc3)c3ccccc3)N2C1=O (configuration not stated) + Cc1c(S(C)(=O)=O)c(-c2cc(F)cc(N3CCN(c4ccc(NS(=O)(=O)c5ccc(NC(CCN6CCC(C(=O)OCCCP(=O)(O)O)CC6)CSc6ccccc6)c(S(=O)(=O)C(F)(F)F)c5)cc4)CC3)c2)c(-c2ccc(Cl)cc2)n1C(C)C
LABEL CLASS: T
//
MOLECULE: O=C(c1ccc(F)c(F)c1Nc1ccc(I)cc1F)N1CC(O)([C@@H]2CCCCN2)C1 + CNC(C)C(=O)NC1CN(S(=O)(=O)c2cccc(S(=O)(=O)N3CCC4CCC(C(=O)NC(c5ccccc5)c5ccccc5)N4C(=O)C(NC(=O)C(C)NC)C3)c2)CCC2CCC(C(=O)NC(c3ccccc3)c3ccccc3)N2C1=O
LABEL CLASS: T
//
MOLECULE: C#Cc1c(F)ccc2cc(O)cc(-c3ncc4c(N5CC6CCC(C5)N6)nc(OCC56CCCN5CC(F)C6)nc4c3F)c12 (configuration not stated) + CNC(C)C(=O)NC1CN(S(=O)(=O)c2cccc(S(=O)(=O)N3CCC4CCC(C(=O)NC(c5ccccc5)c5ccccc5)N4C(=O)C(NC(=O)C(C)NC)C3)c2)CCC2CCC(C(=O)NC(c3ccccc3)c3ccccc3)N2C1=O
LABEL CLASS: F

Continue with the next molecule.
Ask: Does this molecule meet the criterion viability, T/C < 70%? CCN1CCN(Cc2ccc(Nc3ncc(F)c(-c4cc(F)c5nc(C)n(C(C)C)c5c4)n3)nc2)CC1 + Cc1c(S(C)(=O)=O)c(-c2cc(F)cc(N3CCN(c4ccc(NS(=O)(=O)c5ccc(NC(CCN6CCC(C(=O)OCCCP(=O)(O)O)CC6)CSc6ccccc6)c(S(=O)(=O)C(F)(F)F)c5)cc4)CC3)c2)c(-c2ccc(Cl)cc2)n1C(C)C
Result: T

* * *

Test system: 596521-263-R-J1-PDC complex spheroid growth
Experiment: Anticancer human tumor 596521-263-R-J1-PDC cell line growth inhibition [Asc];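 further: spheroids exposed to compounds for 7 days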
Settings: second compound 0.1 µM; first compound 0.03 µM; stronger effect = lower value
Answer each item with its documented viability, T/C.
Numbers only, in %.

COMPOUND: NC(=O)C(=Cn1cnc(-c2cc(C(F)(F)F)cc(C(F)(F)F)c2)n1)c1cncnc1 + CNC(C)C(=O)NC1CN(S(=O)(=O)c2cccc(S(=O)(=O)N3CCC4CCC(C(=O)NC(c5ccccc5)c5ccccc5)N4C(=O)C(NC(=O)C(C)NC)C3)c2)CCC2CCC(C(=O)NC(c3ccccc3)c3ccccc3)N2C1=O
PROPERTY MEASURED: viability, T/C
RESULT UNITS: %
MEASURED VALUE: 35.6
--
COMPOUND: Cc1nc(N2CCC3(CC2)COC(C)C3N)c(CO)nc1Sc1ccnc(N)c1Cl (stereo not given) + Cc1c(S(C)(=O)=O)c(-c2cc(F)cc(N3CCN(c4ccc(NS(=O)(=O)c5ccc(NC(CCN6CCC(C(=O)OCCCP(=O)(O)O)CC6)CSc6ccccc6)c(S(=O)(=O)C(F)(F)F)c5)cc4)CC3)c2)c(-c2ccc(Cl)cc2)n1C(C)C
PROPERTY MEASURED: viability, T/C
RESULT UNITS: %
MEASURED VALUE: 100
--
COMPOUND: NC(=O)C(=Cn1cnc(-c2cc(C(F)(F)F)cc(C(F)(F)F)c2)n1)c1cncnc1 + Cc1c(S(C)(=O)=O)c(-c2cc(F)cc(N3CCN(c4ccc(NS(=O)(=O)c5ccc(NC(CCN6CCC(C(=O)OCCCP(=O)(O)O)CC6)CSc6ccccc6)c(S(=O)(=O)C(F)(F)F)c5)cc4)CC3)c2)c(-c2ccc(Cl)cc2)n1C(C)C
PROPERTY MEASURED: viability, T/C
RESULT UNITS: %
MEASURED VALUE: 48.5
--
COMPOUND: CCN1C(C(=O)NC23CCC(C(=O)O)(CC2)CC3)C(c2cccc(Cl)c2F)C2(C(=O)Nc3cc(Cl)ccc32)C12CCCCC2 (stereo not given) + Cc1c(S(C)(=O)=O)c(-c2cc(F)cc(N3CCN(c4ccc(NS(=O)(=O)c5ccc(NC(CCN6CCC(C(=O)OCCCP(=O)(O)O)CC6)CSc6ccccc6)c(S(=O)(=O)C(F)(F)F)c5)cc4)CC3)c2)c(-c2ccc(Cl)cc2)n1C(C)C
PROPERTY MEASURED: viability, T/C
RESULT UNITS: %
MEASURED VALUE: 94.8

Now consider a different compound.
Ask: Provide value of viability, T/C for this record tested with 596521-263-R-J1-PDC complex spheroid growth: Cc1nc(N2CCC3(CC2)COC(C)C3N)c(CO)nc1Sc1ccnc(N)c1Cl (stereo not given) + CNC(C)C(=O)NC1CN(S(=O)(=O)c2cccc(S(=O)(=O)N3CCC4CCC(C(=O)NC(c5ccccc5)c5ccccc5)N4C(=O)C(NC(=O)C(C)NC)C3)c2)CCC2CCC(C(=O)NC(c3ccccc3)c3ccccc3)N2C1=O
Result: 82.2

The measurements presented in this section are drawn from PubChem BioAssay AID1963449.
